Test system: E57 (patient-derived glioblastoma stem cells of mesenchymal subtype);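 further: nuclei counted by high-content imaging of Hoechst-stained cells in laminin-coated 384-well plates, relative to 0.1% DMSO vehicle wells, with staurosporine as cell-death control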
method description: surviving fraction (nuclei count normalised to DMSO); higher = more cells surviving (less toxic)
experimental conditions: 1000 nM; exposure time: 72 h
Structures can show the parent of a compound that is named as a salt.
Recorded surviving fraction values for a group of compounds are listed next.
metric: surviving fraction

# compound, target under test, metric, number
records = [
    ("Cc1[nH]nc(C(F)(F)F)c1Cc1sc2c(c1C(=O)N1C[C@](C)(O)CO1)c(=O)n(C)c(=O)n2C(C)C [AZD3965]", "E57", "surviving fraction", 0.922),
    ("Cc1c(-c2ccc(-c3ccccc3F)cc2)nc2ccc(F)cc2c1C(=O)O [Brequinar sodium salt hydrate]", "E57", "surviving fraction", 0.372),
    ("CCN(CC)Cc1ccc(C(=O)N(CCc2ccccc2OC)[C@@H]2CCNC2)cc1", "E57", "surviving fraction", 1.05),
    ("OCCN1C[C@H](O)[C@@H](O)[C@H](O)[C@H]1CO [Miglitol]", "E57", "surviving fraction", 0.997),
    ("C[C@H](Cc1cc2c(c(C(N)=O)c1)N(CCCO)CC2)NCCOc1ccccc1OCC(F)(F)F [Silodosin]", "E57", "surviving fraction", 0.911),
    ("Nc1ccn([C@H]2CC[C@@H](CO)O2)c(=O)n1 [Zalcitabine]", "E57", "surviving fraction", 1.02),
    ("COc1ccc2[nH]c([S+]([O-])Cc3ncc(C)c(OC)c3C)nc2c1 (stereo unspecified) [Omeprazole]", "E57", "surviving fraction", 1.01),
    ("CSc1ccc2c(c1)N(CCC1CCCCN1C)c1ccccc1S2 (stereo unspecified) [Thioridazine hydrochloride]", "E57", "surviving fraction", 0.889),
    ("OC(c1cc(C(F)(F)F)nc2c(C(F)(F)F)cccc12)C1CCCCN1 (stereo unspecified) [Mefloquine hydrochloride]", "E57", "surviving fraction", 0.93),
    ("CC[C@@]1(O)C(=O)OCc2c1cc1n(c2=O)Cc2cc3c(CN(C)C)c(O)ccc3nc2-1 [Topotecan]", "E57", "surviving fraction", 0.129),
    ("CCCCCCNC(=O)n1cc(F)c(=O)[nH]c1=O [Carmofur]", "E57", "surviving fraction", 0.954),
]

====

Recorded phenotypic distance values for a group of compounds are listed next.
Test system: E31 (patient-derived glioblastoma stem cells of proneural subtype);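 further: cell Painting imaging in 384-well plates, CellProfiler features reduced to at least 20 principal components, Euclidean distance versus same-plate DMSO vehicle wells (0.1% v/v), median over six images per well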
method description: phenotypic distance (Euclidean, principal components) from DMSO controls (arbitrary units); higher = stronger morphological change
experimental conditions: 3000 nM; exposure time: 72 h
Structures can show the parent of a compound that is named as a salt.
metric: phenotypic distance

# compound, target under test, metric, number
rows = [
    ("O=c1c2ccccc2[se]n1-c1ccccc1", "E31", "phenotypic distance", 3.3),
    ("C/C(=C\\c1csc(C)n1)[C@@H]1C[C@@H]2O[C@]2(C)CCC[C@H](C)[C@H](O)[C@@H](C)C(=O)C(C)(C)[C@@H](O)CC(=O)N1 [Ixabepilone]", "E31", "phenotypic distance", 4.08),
    ("Cc1ccc2c(c1)C1(CCN(CCc3nc(-c4ccccc4)oc3C)CC1)OC(=O)N2", "E31", "phenotypic distance", 0.687),
    ("NC(=O)c1ccccc1 [Benzamide]", "E31", "phenotypic distance", 0.951),
    ("O=C1CCc2cc(OCCCCc3nnnn3C3CCCCC3)ccc2N1", "E31", "phenotypic distance", 0.868),
    ("Cc1ccc(C(=O)Nc2ccc(CN3CCN(C)CC3)c(C(F)(F)F)c2)cc1C#Cc1cnc2cccnn12", "E31", "phenotypic distance", 8.04),
    ("Nc1nc2n[nH]nc2c(=O)[nH]1", "E31", "phenotypic distance", 5.2),
    ("N=C(NCCCCCCNC(=N)NC(=N)Nc1ccc(Cl)cc1)NC(=N)Nc1ccc(Cl)cc1", "E31", "phenotypic distance", 2.76),
    ("COC(=O)Nc1nc2cc(C(=O)c3ccccc3)ccc2[nH]1", "E31", "phenotypic distance", 4.51),
    ("CC(C)C[C@H]1C(=O)N2CCC[C@H]2[C@]2(O)O[C@](NC(=O)[C@@H]3C=C4c5cccc6[nH]c(Br)c(c56)C[C@H]4N(C)C3)(C(C)C)C(=O)N12 [Bromocryptine mesylate]", "E31", "phenotypic distance", 0.828),
    ("CC(C)C[C@H](NC(=O)[C@H](CCc1ccccc1)NC(=O)CN1CCOCC1)C(=O)N[C@@H](Cc1ccccc1)C(=O)N[C@@H](CC(C)C)C(=O)[C@@]1(C)CO1", "E31", "phenotypic distance", 8.45),
    ("C/C=C1\\NC(=O)[C@H]2CSSCC/C=C/[C@H](CC(=O)N[C@H](C(C)C)C(=O)N2)OC(=O)[C@H](C(C)C)NC1=O", "E31", "phenotypic distance", 7.62),
    ("C[C@H](Cc1cc2c(c(C(N)=O)c1)N(CCCO)CC2)NCCOc1ccccc1OCC(F)(F)F", "E31", "phenotypic distance", 1.14),
    ("COc1cc2c(cc1O)CC[C@@H]1[C@@H]2CC[C@]2(C)[C@@H](O)CC[C@@H]12", "E31", "phenotypic distance", 5.31),
    ("Clc1ccc(COC(Cn2ccnc2)c2ccc(Cl)cc2Cl)c(Cl)c1 (stereo unspecified)", "E31", "phenotypic distance", 1.51),
    ("CC(=O)OC[C@H]1O[C@@H]([S-])[C@H](OC(C)=O)[C@@H](OC(C)=O)[C@@H]1OC(C)=O.CCP(CC)CC.[Au+]", "E31", "phenotypic distance", 8.52),
]
